pEC50 by entry:
target: Hepatocyte Growth Factor (HGF), human (human, UniProt P14210 32-728); assay: ELISA
Sequence (P14210 32-728): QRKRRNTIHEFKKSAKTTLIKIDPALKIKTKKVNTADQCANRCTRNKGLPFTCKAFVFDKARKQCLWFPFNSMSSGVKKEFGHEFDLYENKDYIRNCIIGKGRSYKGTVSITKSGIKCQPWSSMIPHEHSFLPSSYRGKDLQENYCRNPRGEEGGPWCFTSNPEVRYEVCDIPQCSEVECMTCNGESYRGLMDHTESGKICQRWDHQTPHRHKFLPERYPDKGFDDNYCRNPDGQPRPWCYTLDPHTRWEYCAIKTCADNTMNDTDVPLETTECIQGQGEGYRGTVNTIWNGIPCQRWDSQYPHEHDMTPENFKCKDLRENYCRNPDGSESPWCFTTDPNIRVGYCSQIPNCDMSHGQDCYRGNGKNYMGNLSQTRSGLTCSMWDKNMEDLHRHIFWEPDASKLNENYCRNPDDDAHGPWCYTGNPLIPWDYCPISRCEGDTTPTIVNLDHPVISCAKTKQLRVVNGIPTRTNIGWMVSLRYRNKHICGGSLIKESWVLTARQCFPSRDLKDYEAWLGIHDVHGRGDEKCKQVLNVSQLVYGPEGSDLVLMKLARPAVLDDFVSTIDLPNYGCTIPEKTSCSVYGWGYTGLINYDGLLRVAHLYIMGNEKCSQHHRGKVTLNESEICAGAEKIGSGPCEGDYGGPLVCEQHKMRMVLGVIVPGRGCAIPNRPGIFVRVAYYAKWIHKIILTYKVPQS
pEC50 here: minus log base 10 of the concentration, concentration in moles per litre.

Q) Any idea what its pEC50 is? The binder is HC 5/SLC 6 (antibody) chain 1: GQGTLVTVSSASTKGQPVLHQPPAMSSALGTTIRLTCTLRNDHDIGVYSVYWYQQRPGHPPRFLLRYFSQSDKSQGPQVPPRFSGSKDVARNRGYLSISELQPEDEAMYYCAMGARSRCWPRGFQSKHNSVTHVFGSGTQLTVLSQPKATPSVTLFPPSSEELQANKATLVCLMNDFYPGILTVTWKADGTPITQGVEMTTPSKQSNNKYAASSYLSLTPEQWRSRRSYSCQVMHEGSTVEKTVAPAECS chain 2: MSWAPVLLMLFVYCTGCGPQPVLHQPPAMSSALGTTIRLTCTLRNDHDIGVYSVYWYQQRPGHPPRFLLRYFSQSDKSQGPQVPPRFSGSKDVARNRGYLSISVTHVFGSGTQLTVLSQPKATQVQLVQ
A) 10.23

Q) Any idea what its pEC50 is? The binder is HC 7/SLC 7 (antibody) chain 1: GQGTLVTVSSASTKGPSQPVLHQPPAMSSALGTTIRLTCTLRNDHDIGVYSVYWYQQRPGHPPRFLLRYFSQSDKSQGPQVPPRFSGSKDVARNRGYLSISELQPEDEAMYYCAMGARSRCWPRGFQSKHNSVTHVFGSGTQLTVLSQPKATPSVTLFPPSSEELQANKATLVCLMNDFYPGILTVTWKADGTPITQGVEMTTPSKQSNNKYAASSYLSLTPEQWRSRRSYSCQVMHEGSTVEKTVAPAECS chain 2: MSWAPVLLMLFVYCTGCGPQPVLHQPPAMSSALGTTIRLTCTLRNDHDIGVYSVYWYQQRPGHPPRFLLRYFSQSDKSQGPQVPPRFSGSKDVARNRGYLSISVTHVFGSGTQLTVLSQPKATPQVQLVQ
A) 10.25

Q) Any idea what its pEC50 is? The binder is HC 2/SLC 15 (antibody) chain 1: GQGTLVTVSSASQPVLHQPPAMSSALGTTIRLTCTLRNDHDIGVYSVYWYQQRPGHPPRFLLRYFSQSDKSQGPQVPPRFSGSKDVARNRGYLSISELQPEDEAMYYCAMGARSRCWPRGFQSKHNSVTHVFGSGTQLTVLSQPKATPSVTLFPPSSEELQANKATLVCLMNDFYPGILTVTWKADGTPITQGVEMTTPSKQSNNKYAASSYLSLTPEQWRSRRSYSCQVMHEGSTVEKTVAPAECS chain 2: MSWAPVLLMLFVYCTGCGPQPVLHQPPAMSSALGTTIRLTCTLRNDHDIGVYSVYWYQQRPGHPPRFLLRYFSQSDKSQGPQVPPRFSGSKDVARNRGYLSISVTHVFGSGTQLTVLSQPKATPSVTGGGGSQVQLVQ
A) 10.39

Q) Any idea what its pEC50 is? The binder is HC 7/SLC 8 (antibody) chain 1: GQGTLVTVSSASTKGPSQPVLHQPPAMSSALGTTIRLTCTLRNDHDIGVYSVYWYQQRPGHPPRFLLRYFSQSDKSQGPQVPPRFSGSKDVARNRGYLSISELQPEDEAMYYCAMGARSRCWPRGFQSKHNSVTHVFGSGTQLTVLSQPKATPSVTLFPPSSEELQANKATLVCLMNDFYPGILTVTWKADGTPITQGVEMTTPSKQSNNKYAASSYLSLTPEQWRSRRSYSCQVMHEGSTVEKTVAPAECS chain 2: MSWAPVLLMLFVYCTGCGPQPVLHQPPAMSSALGTTIRLTCTLRNDHDIGVYSVYWYQQRPGHPPRFLLRYFSQSDKSQGPQVPPRFSGSKDVARNRGYLSISVTHVFGSGTQLTVLSQPKATPSQVQLVQ
A) 10.25

Q) Any idea what its pEC50 is? The binder is HC 3/SLC 9 (antibody) chain 1: GQGTLVTVSSASTQPVLHQPPAMSSALGTTIRLTCTLRNDHDIGVYSVYWYQQRPGHPPRFLLRYFSQSDKSQGPQVPPRFSGSKDVARNRGYLSISELQPEDEAMYYCAMGARSRCWPRGFQSKHNSVTHVFGSGTQLTVLSQPKATPSVTLFPPSSEELQANKATLVCLMNDFYPGILTVTWKADGTPITQGVEMTTPSKQSNNKYAASSYLSLTPEQWRSRRSYSCQVMHEGSTVEKTVAPAECS chain 2: MSWAPVLLMLFVYCTGCGPQPVLHQPPAMSSALGTTIRLTCTLRNDHDIGVYSVYWYQQRPGHPPRFLLRYFSQSDKSQGPQVPPRFSGSKDVARNRGYLSISVTHVFGSGTQLTVLSQPKATPSVQVQLVQ
A) 10.31

Q) Any idea what its pEC50 is? The binder is HC 3/SLC 5 (antibody) chain 1: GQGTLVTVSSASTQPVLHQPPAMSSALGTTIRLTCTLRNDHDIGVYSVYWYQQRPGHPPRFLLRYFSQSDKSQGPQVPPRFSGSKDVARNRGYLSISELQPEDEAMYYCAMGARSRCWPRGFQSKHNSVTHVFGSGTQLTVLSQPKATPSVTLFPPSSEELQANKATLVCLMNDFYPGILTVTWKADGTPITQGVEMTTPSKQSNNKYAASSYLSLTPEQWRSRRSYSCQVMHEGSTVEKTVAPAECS chain 2: MSWAPVLLMLFVYCTGCGPQPVLHQPPAMSSALGTTIRLTCTLRNDHDIGVYSVYWYQQRPGHPPRFLLRYFSQSDKSQGPQVPPRFSGSKDVARNRGYLSISVTHVFGSGTQLTVLSQPKAQVQLVQ
A) 10.27

Numbers sourced from patent US20150045540A1.
